- experimental_details: ABTS˙^+ radical scavenging assay
- Type: biochemical
- assay_setup: 0.75 µg/mL
measured_quantity: % of ABTS˙^+ Scavenged (%)
The figure you give is taken to be in %; do not add the unit.

INSERT INTO results (compound, measured_quantity, reading) VALUES
  ('Br.C/C(=N\Nc1nc(-c2ccc(O)c(C(N)=O)c2)cs1)c1ccc(O)cc1O [Compound 7a]', '% of ABTS˙^+ Scavenged', 17.29),
  ('Br.NC(=O)c1cc(-c2csc(N/N=C/c3ccc(O)cc3O)n2)ccc1O [Compound 7b]', '% of ABTS˙^+ Scavenged', 30.15);

Continue with the compound presented below.
Look up % of ABTS˙^+ Scavenged of Br.C/C(=N\Nc1nc(-c2ccccc2)cs1)c1ccc(O)cc1O [Compound 6a] and report it. 7.92
